Source listed as PubChem BioAssay (NCI).

Tested on: MDA-MB-435 melanoma
Method Summary: NCI-60 one-dose screen, 48 h (100 = growth as untreated, 0 = no growth, -100 = all killed)
Test Conditions: 10 µM unless noted
This is part of a sample that, as a whole, favours compounds with a hit. Of some 83,000 tested, about 20% had one in any assay.
Measure: growth (%)
Expressed in %, but write only the number.

The observed growth for CCOC(=O)Nc1ccc2c3c(cccc13)-c1ccccc1-2 when tested with MDA-MB-435 melanoma stands at -9.66

###

Tested on: MCF7 breast
Method Summary: NCI-60 one-dose screen, 48 h (100 = growth as untreated, 0 = no growth, -100 = all killed)
Test Conditions: 10 µM unless noted
About 83,000 compounds went through this panel and 20% of them were active in at least one assay; those are over-represented in the sample as a whole. Activity calls are given as the source filed them. Rule for the calls: active = growth percent below 10; inactive = the rest.
Measure: growth

growth reported for this compound COc1ccc(Oc2ccccc2NC(=O)CNC(=O)c2cccc3ccccc23)cc1 : 23.5% [5 µM] (inactive)

growth reported for this compound O=C(/C=C/c1ccc([N+](=O)[O-])cc1)c1ccc2c3c(cccc13)CC2 : 22% (inactive)

growth reported for this compound COc1cc(/C=N/NC(=O)c2ccc(C(F)(F)F)nc2Nc2cc(Cl)ccc2C)cc(OC)c1OC : 104% (inactive)

growth reported for this compound Clc1ccc2c(c1)C(Br)c1cc(Cl)cc(Cl)c1-2 (stereo not drawn) : 69% (inactive)

growth reported for this compound COc1cc(C2CC(c3ccc(C)cc3)=NN2C=O)ccc1OCCN(C)C (stereo not drawn) : 92.5% (inactive)

growth reported for this compound Cc1ccc(-c2c3c(N)c4c(nc3nc3c2c(C)nn3-c2ccccc2)CCC4)cc1 : 14.9% (inactive)

growth reported for this compound CC[n+]1c(/C=C/c2ccc(N3CCCC3)cc2)cccc1/C=C/c1ccc(N2CCCC2)cc1 : -85.5% (active)
